meta.source: ChEMBL document CHEMBL1800040

Test system: Leishmania donovani
Assay: Antileishmanial activity against Leishmania donovani promastigotes
Format: functional, organism-based
Details: read-out: IC50
result_type: IC50 (µM)

Below, 5 compounds whose answers are already recorded.
input_smiles | endpoint_result
CC1(C)[C@H]2C[C@@H]3Cc4c(O)c(C=O)c(O)c(C=O)c4O[C@]3(CCO)[C@@H]1C2 | 6.1
CC(=O)c1c(O)c(C=O)c2c(c1O)CC[C@@]1(O2)[C@@H]2CC[C@@H](C2)C1(C)C | 1.25
CC(=O)c1c(O)c(C=O)c2c(c1O)C[C@H]1C[C@H]3C[C@H](C3(C)C)[C@@]1(C)O2 | 2.73
CC1(C)[C@@H]2C[C@@]3(C)Oc4c(C=O)c(O)c(C=O)c(O)c4C[C@H]3C[C@@H]21 | 5.75
CC(C)CC(=O)c1c(O)c(C=O)c(O)c2c1O[C@@]1(CC2)CC[C@H]2C[C@@H]1C2(C)C | 3.1

A = CC(C)CC(=O)c1c(O)c(C=O)c(O)c2c1O[C@@]1(CCO)[C@@H](C2)C[C@H]2C[C@@H]1C2(C)C
B = CC(C)CC(=O)c1c(O)c(C=O)c2c(c1O)CC[C@@]1(CC[C@H]3C[C@@H]1C3(C)C)O2
Ask: Could you please tell me which of these two has the higher IC50: A or B ? Let me know the label of the one you choose.
Reply: A

P = CC(C)C[C@@H]1C[C@@]2(CC[C@H]3C[C@@H]2C3(C)C)Oc2c(C=O)c(O)c(C=O)c(O)c21
Q = CC(C)CC(=O)c1c(O)c(C=O)c2c(c1O)CC[C@@]1(O2)[C@@H]2CC[C@@H](C2)C1(C)C
Ask: Sort P and Q by IC50 descending and give the first. Provide the label of your selected option as the answer.
Reply: P
(P: 4.14 µM, Q: 0.93 µM)

I = CC(=O)c1c(O)c(C=O)c(O)c2c1O[C@@]1(C)[C@@H](C2)C[C@H]2C[C@@H]1C2(C)C
II = CC(C)CC(=O)c1c(O)c(C=O)c2c(c1O)C[C@H]1C[C@H]3[C@@H](C[C@@]1(C)O2)C3(C)C
III = CC(C)CC(=O)c1c(O)c(C=O)c(O)c2c1O[C@]1(C)C[C@@H]3[C@H](C[C@@H]1C2)C3(C)C
Ask: Please list these in order of increasing IC50. Thank you! Present the labels in the sequence the task asks for.
Reply: II, III, I

###

Tested on: Leishmania donovani
Assay: Antileishmanial activity against Leishmania donovani promastigotes
Type: functional, organism-based
Conditions: read-out: IC50
result_type: IC50 (µM)

compound | IC50 (µM)
CC(C)CC(=O)c1c(O)c(C=O)c(O)c2c1O[C@@]1(C)[C@@H](C2)C[C@H]2C[C@@H]1C2(C)C [EUGLOBAL G1] | 1.84

A = CC(=O)c1c(O)c(C=O)c2c(c1O)C[C@H]1C[C@H]3[C@@H](C[C@@]1(C)O2)C3(C)C
B = CC(=O)c1c(O)c(C=O)c(O)c2c1O[C@]1(CC2)[C@@H]2CC[C@@H](C2)C1(C)C
Ask: Please tell me which of the two, A or B , has the higher reported IC50 value. Kindly give the label for the entry you pick.
Reply: B

P = CC1(C)[C@H]2C[C@@H]3Cc4c(O)c(C=O)c(O)c(C=O)c4O[C@]3(C)[C@@H]1C2
Q = CC(C)CC(=O)c1c(O)c(C=O)c2c(c1O)C[C@H]1CC[C@H]3[C@H](C3(C)C)[C@@]1(C)O2
Ask: In terms of reported IC50, does P or Q have the smaller number? Output the label that corresponds to your choice.
Reply: Q
(Q: 0.62 µM, P: 7.26 µM)
